Recorded values, source a collection of fitness landscapes (doi:10.1126/science.1257360).

B1: PhoQ; a variant is named by its letters at X, in order, P23837 (parent)
chain: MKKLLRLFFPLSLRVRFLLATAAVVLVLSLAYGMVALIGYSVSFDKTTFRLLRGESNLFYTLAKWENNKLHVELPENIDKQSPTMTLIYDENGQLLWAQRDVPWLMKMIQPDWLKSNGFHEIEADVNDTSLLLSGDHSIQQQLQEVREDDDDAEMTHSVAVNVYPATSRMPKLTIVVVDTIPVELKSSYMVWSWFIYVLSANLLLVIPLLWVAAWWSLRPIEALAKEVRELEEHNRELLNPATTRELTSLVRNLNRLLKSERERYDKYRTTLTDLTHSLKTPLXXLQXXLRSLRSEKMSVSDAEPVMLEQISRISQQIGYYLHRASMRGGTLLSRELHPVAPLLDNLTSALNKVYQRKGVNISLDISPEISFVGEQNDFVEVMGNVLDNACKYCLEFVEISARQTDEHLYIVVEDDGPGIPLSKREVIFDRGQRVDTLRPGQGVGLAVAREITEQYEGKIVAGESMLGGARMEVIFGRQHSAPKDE

# Variants of: B1
# Protocol notes: enrichment ratio after two sorts for PhoP signalling (ratio (wild type AVST 3.29)); higher = more functional
# Measurement setup: with PhoP (E. coli)
The full ranking holds about 140,000 sequences; the median of “enrichment ratio after two sorts for PhoP signalling” is about 0, and the highest 2% start at about 11. The list comes from a sample in which the highest values are over-represented; it also holds close analogues and randomly drawn sequences.
enrichment ratio for assorted variants

{"Mutation notation": "ASTM", "enrichment ratio": 12.3}
{"Mutation notation": "TNMC", "enrichment ratio": 35.5}
{"Mutation notation": "TIPQ", "enrichment ratio": "≤ 0.25"}
{"Mutation notation": "TNCK", "enrichment ratio": "≤ 0.25"}
{"Mutation notation": "KFKS", "enrichment ratio": "≤ 0.25"}
{"Mutation notation": "APGD", "enrichment ratio": "≤ 0.25"}
{"Mutation notation": "TKVV", "enrichment ratio": 16.7}
{"Mutation notation": "TKMA", "enrichment ratio": 20.5}
{"Mutation notation": "GIAM", "enrichment ratio": 33.4}
{"Mutation notation": "GGWG", "enrichment ratio": "≤ 0.25"}
{"Mutation notation": "IKRV", "enrichment ratio": "≤ 0.25"}
{"Mutation notation": "PTRL", "enrichment ratio": "≤ 0.25"}
{"Mutation notation": "AHCE", "enrichment ratio": "≤ 0.25"}
{"Mutation notation": "TSCQ", "enrichment ratio": 21.3}
{"Mutation notation": "TDSI", "enrichment ratio": 8.92}
{"Mutation notation": "TSCA", "enrichment ratio": 15.2}
{"Mutation notation": "YTSF", "enrichment ratio": "≤ 0.25"}
{"Mutation notation": "CTDF", "enrichment ratio": "≤ 0.25"}
{"Mutation notation": "TKVM", "enrichment ratio": 36.7}
{"Mutation notation": "ASRM", "enrichment ratio": "≤ 0.25"}
{"Mutation notation": "MCGM", "enrichment ratio": 12.2}
{"Mutation notation": "SLVH", "enrichment ratio": 2.06}
{"Mutation notation": "SAIV", "enrichment ratio": 3.88}
{"Mutation notation": "MCAK", "enrichment ratio": 21.4}
{"Mutation notation": "AIIE", "enrichment ratio": "≤ 0.25"}
{"Mutation notation": "KKRY", "enrichment ratio": "≤ 0.25"}
{"Mutation notation": "TNFL", "enrichment ratio": "≤ 0.25"}
{"Mutation notation": "MLAM", "enrichment ratio": 15.5}
{"Mutation notation": "ILFN", "enrichment ratio": "≤ 0.25"}
{"Mutation notation": "GMGM", "enrichment ratio": "≤ 0.25"}
{"Mutation notation": "MKFL", "enrichment ratio": 0.755}
{"Mutation notation": "MIEG", "enrichment ratio": "≤ 0.25"}
{"Mutation notation": "GIRM", "enrichment ratio": "≤ 0.25"}
{"Mutation notation": "HQEY", "enrichment ratio": "≤ 0.25"}
{"Mutation notation": "NAQL", "enrichment ratio": "≤ 0.25"}
{"Mutation notation": "ATIH", "enrichment ratio": 25.3}
{"Mutation notation": "HGRF", "enrichment ratio": "≤ 0.25"}
{"Mutation notation": "ADIH", "enrichment ratio": "≤ 0.25"}
{"Mutation notation": "MNFL", "enrichment ratio": 14.1}
{"Mutation notation": "YTDF", "enrichment ratio": "≤ 0.25"}
{"Mutation notation": "AKVV", "enrichment ratio": 11}
{"Mutation notation": "KLQL", "enrichment ratio": "≤ 0.25"}
{"Mutation notation": "WRRM", "enrichment ratio": "≤ 0.25"}
{"Mutation notation": "AGIH", "enrichment ratio": 16.3}
{"Mutation notation": "CKMF", "enrichment ratio": 38.2}
{"Mutation notation": "WESK", "enrichment ratio": "≤ 0.25"}
{"Mutation notation": "FELA", "enrichment ratio": 2.53}
{"Mutation notation": "HKVV", "enrichment ratio": "≤ 0.25"}
{"Mutation notation": "MMHC", "enrichment ratio": "≤ 0.25"}
{"Mutation notation": "GIMD", "enrichment ratio": "≤ 0.25"}
{"Mutation notation": "AFDH", "enrichment ratio": "≤ 0.25"}
{"Mutation notation": "MLNM", "enrichment ratio": "≤ 0.25"}
{"Mutation notation": "ASGM", "enrichment ratio": 22.7}
{"Mutation notation": "TCCN", "enrichment ratio": 17.6}
{"Mutation notation": "MLWM", "enrichment ratio": "≤ 0.25"}
{"Mutation notation": "YISQ", "enrichment ratio": 0.456}
{"Mutation notation": "KQSF", "enrichment ratio": "≤ 0.25"}
{"Mutation notation": "FHDF", "enrichment ratio": "≤ 0.25"}
{"Mutation notation": "TILT", "enrichment ratio": 2.41}
{"Mutation notation": "SRVH", "enrichment ratio": "≤ 0.25"}
{"Mutation notation": "YTWG", "enrichment ratio": "≤ 0.25"}
{"Mutation notation": "IFME", "enrichment ratio": "≤ 0.25"}
{"Mutation notation": "ASDH", "enrichment ratio": "≤ 0.25"}
{"Mutation notation": "PYQI", "enrichment ratio": "≤ 0.25"}
{"Mutation notation": "MKAK", "enrichment ratio": "≤ 0.25"}
{"Mutation notation": "NNAM", "enrichment ratio": "≤ 0.25"}
{"Mutation notation": "VECN", "enrichment ratio": "≤ 0.25"}
{"Mutation notation": "FSCT", "enrichment ratio": "≤ 0.25"}
{"Mutation notation": "HKMA", "enrichment ratio": "≤ 0.25"}
{"Mutation notation": "LWEP", "enrichment ratio": "≤ 0.25"}
{"Mutation notation": "TSCT", "enrichment ratio": 18.9}
{"Mutation notation": "GNAM", "enrichment ratio": 35.8}
{"Mutation notation": "NECN", "enrichment ratio": "≤ 0.25"}
{"Mutation notation": "SEVH", "enrichment ratio": 17.3}
{"Mutation notation": "TNNI", "enrichment ratio": 3.41}
{"Mutation notation": "VSQK", "enrichment ratio": "≤ 0.25"}
{"Mutation notation": "IKYG", "enrichment ratio": "≤ 0.25"}
{"Mutation notation": "DWYQ", "enrichment ratio": "≤ 0.25"}
{"Mutation notation": "KSCT", "enrichment ratio": "≤ 0.25"}
{"Mutation notation": "AKMS", "enrichment ratio": 3.84}
{"Mutation notation": "TGIH", "enrichment ratio": "≤ 0.25"}
{"Mutation notation": "AICE", "enrichment ratio": 14.2}
{"Mutation notation": "TTWG", "enrichment ratio": 12.2}
{"Mutation notation": "HWTI", "enrichment ratio": "≤ 0.25"}
{"Mutation notation": "TTSF", "enrichment ratio": 13.7}
{"Mutation notation": "CKFF", "enrichment ratio": "≤ 0.25"}
{"Mutation notation": "ASAM", "enrichment ratio": 20.2}
{"Mutation notation": "YLNI", "enrichment ratio": "≤ 0.25"}
{"Mutation notation": "HKVW", "enrichment ratio": "≤ 0.25"}
{"Mutation notation": "FMLS", "enrichment ratio": "≤ 0.25"}
{"Mutation notation": "KVIR", "enrichment ratio": "≤ 0.25"}
